These data points were gathered from ChEMBL document CHEMBL3988442.

Species: Homo sapiens
Assay: To identify inhibition of the IFN signalling (Jak-Stat) pathway via expression of an eGFP reporter gene under the control of an IFN-stimulated response element (ISRE) containing MxA promoter.
Format: functional
Design: scale not given: direction of the effect not stated beside the values
Details: 30 µM
observed_property: Percent Effect (%)
Use % as the unit, but write only the number.

So for Cc1noc(C)c1C(=O)N(C)Cc1nc(-c2ccccn2)no1 , the logged Percent Effect turned out to be -1.43

For reference, reported Percent Effect for COCCN(Cc1ccc(F)cc1Cl)C(=O)c1ccc(=O)[nH]n1 stands at -2.22

Form field Percent Effect, entry CCc1nc(CN(C(C)=O)C2CCN(CCc3cnn(C)c3)C2)no1 (stereo not given) : 22.4

GET /value?item= Cc1ccc(N2CCCC(NCc3ccc(C)o3)C2)nn1 (stereo not given) &field=Percent Effect returns -8.15

Form: molecule = CC(O)CN1CCN(C(=O)c2ccc(Cn3cccc3)cc2)CC1 (stereo not given) ; Percent Effect = 6.79

---

Molecular target: Tyrosyl-tRNA synthetase, putative (Trypanosoma cruzi (strain CL Brener))
Test: Trypanosoma cruzi tyrosyl tRNA synthetase (TcYRS) SOP
Assay type: functional
Set-up: scale not given: direction of the effect not stated beside the values
Conditions: 30 µM
observed_property: Percent Effect

// recorded Percent Effect for CNC1CCCN(Cc2noc(C3CC3)n2)C1 (configuration not stated) : 0%

Form: compound = COc1ncc(NC(=O)Nc2cc(C)ccc2OC)cn1 ; Percent Effect = 11.5%

Lookup result for O=C(NCC1CCOC1)c1csc(-c2cccc(Cl)c2)n1 (configuration not stated) ; measured Percent Effect: 14.6%

Memo: COCC1CN(Cc2cc(C)on2)Cc2cn(C)nc21 (configuration not stated) , reported Percent Effect: 10%

Kindly note the recorded Percent Effect for CC(C)N(C)Cc1cnc2n1CCN(CCc1ccccc1)C2 , which is 8.54%

Reported Percent Effect for O=C(CC1CC1)N1CC[C@H]2[C@@H]1CCC(=O)N2c1cccnc1 was 12.8%

Record CN(Cc1nnc(C2CC2)n1C)C1CCN(CCc2cccs2)C1 (configuration not stated) . Reported Percent Effect: 6.17%

Entry under test: Cc1nn(C)c(Cl)c1C1CCCN1C(=O)c1cc[nH]n1 (configuration not stated) . Its Percent Effect was 11.1%

The reported Percent Effect of the compound COc1ccc(C(=O)N(C)Cc2cccc(C#N)c2)c(OC)c1OC was 3.66%

Reported Percent Effect of O=C(CC1CCCC1)NCCn1ccc(-c2ccncc2)n1 : 3.85%

Entry Cn1c(CC2CCS(=O)(=O)C2)nnc1SCCOc1cccc(Cl)c1 (configuration not stated) ; Percent Effect = 16.1%

get_value(item= Cc1nc(C)n(C2CCCN(C(=O)Cc3n[nH]c4ccccc34)C2)n1 (configuration not stated) , readout=Percent Effect) returns 14.6%

Notebook: N#Cc1ccnc(N2CCN(Cc3cccc(F)c3)CC2)c1 , Percent Effect read as 16.1%

Looking up Cc1occc1C(=O)N1CCO[C@H]2[C@@H](Oc3ccccn3)CC[C@@H]21 , I found its Percent Effect recorded as 3.85%

Reported Percent Effect for O=C(CCCn1cncn1)NC1(c2ccccc2)CCC1 was 11.1%

Entry Cc1nc2c(c(C)c1CC(=O)Nc1ccc(Cl)cc1)c(=O)[nH]n2C ; Percent Effect = 13.6%

The value of Percent Effect measured for the compound Cc1cc(NC(=O)CN2CCc3cnc(C)nc3C2)on1 turned out to be 16.1%

Lab book: Percent Effect of CN(C)c1ccc(CCNC(=O)NCc2ccc(N(C)C)nc2)cc1 noted as 18.5%

// recorded Percent Effect for CC(NC(=O)NCCCn1cccn1)c1ccc2c(c1)NC(=O)CO2 (configuration not stated) : 29.1%

Lab note: measured Percent Effect of CN1CCOC(CN(C(=O)CC2CCCC2)c2nccs2)C1 (configuration not stated) was -6.1%

Data point: Cc1nnc2n1CCN(CCS(=O)(=O)c1ccccc1)C2 ; Percent Effect = 14.6%

// field: Percent Effect; key: CCCNC(=O)NC(=O)CN(CC(C)O)c1ccccc1 (configuration not stated) ; value = 9.41%

Noted for CCN1CCn2c(C)cnc2C12CCN(C(=O)CC(C)C)CC2 : its Percent Effect reads 5%

Query CCc1cnc(CN(C(C)=O)C2CCN(CCS(C)(=O)=O)C2)o1 (configuration not stated) yields Percent Effect of 10.3%

According to the records, this compound CC(=O)N(C)CC(=O)Nc1cccc(N2CCN(CC3CC3)CC2)c1 displays Percent Effect of 11.1%

Percent Effect recorded for this compound, CCN1CCCn2c(nc(CNC(=O)c3ccsc3)cc2=O)C1 , is 17.9%

Entry under test: COC(=O)c1cccn1C1CCN(C(=O)c2cn[nH]c2C)CC1 . Its Percent Effect was 19.5%

CN(C)C(=O)CNC(=O)c1cc(Br)c2c(c1)OCCO2 has a reported Percent Effect of 18.5%

Percent Effect in this record for CCc1nc(C2CCCN(C(=O)CCn3ccccc3=O)C2)no1 (configuration not stated) : 0%

In plain terms, Cc1ccc(C2CSCCN2C(=O)c2ccc(C(N)=O)cc2)o1 (configuration not stated) has a documented Percent Effect of 11.1%

Given item Cc1nn(C)c(Cl)c1C1CCCN1c1ncnc2sccc12 (configuration not stated) , the value recorded as its Percent Effect is 3.7%

The recorded Percent Effect for entry Cc1ccc(CNC(=O)CN2CCN(CC(O)c3ccco3)CC2)cc1 (configuration not stated) equals 24.4%

What the record says about CS(=O)(=O)NCc1cn2c(n1)CN(C(=O)c1ccc[nH]1)CC2 : Percent Effect is 14.1%

Value of measured Percent Effect for the entry CCn1c(C)cc(C(=O)N2CCCC(c3nc(C)no3)C2)c1C (configuration not stated) : 9.41%

Value of measured Percent Effect for the entry NC(=O)c1cccc(CC2CCN(C(=O)CCCN3CCOCC3)C2)c1 (configuration not stated) : 2.5%

GET /value?item= COCc1ccccc1NC(=O)[C@@H]1CCCN1C(=O)c1ccco1 &field=Percent Effect returns 5.13%

// field: Percent Effect; key: CCC(C)(NCC(=O)Nc1ccccc1)c1nc(C)cs1 (configuration not stated) ; value = 6.17%

Note to self: Percent Effect recorded for CC(NC(=O)Nc1cc(F)ccc1N1CCCCC1)c1nncn1C (configuration not stated) was 1.24%

Field Percent Effect (entry O=C(CCC1CCCC1)N1CCC(c2ncc3c(n2)CCNC3)CC1 ) reads 19.5%

For reference, reported Percent Effect for COCCN(Cc1ccoc1)C(=O)c1c(F)cccc1Cl stands at 11.5%

# compound Cn1cnnc1C1CCCN(C(=O)NCCNc2ccccn2)C1 (configuration not stated) ; its Percent Effect = 18.8%

For record CNCC(=O)N1CCCC(c2nccnc2Oc2cccc(F)c2)C1 (configuration not stated) the listed Percent Effect is 3.85%
